- Test system: HOP-92 NSCLC
- procedure_summary: NCI tumour cell line growth inhibition, 48 h
value_kind: TGI

NC(=O)c1[nH]cnc1/N=N/SCC(N)C(=O)O (stereo not given)    > 100 µM
CC1=C(c2cc(C(=O)Nc3cccc(C(F)(F)F)c3)ncn2)Sc2ccccc2N1    > 100 µM
O=C([O-])c1ccc(C(=O)[O-])cc1.O=C([O-])c1ccc(C(=O)[O-])cc1.[Mo+2].[Mo+2]    > 100 µM
CC(=O)OC1CC2C(C)(C)C(=O)C=CC2(C)C2CCC3(C)C(c4ccoc4)OC(=O)C4OC43C12C (stereo not given)    > 100 µM

// switching to the query compound
TGI for `C#CCOc1cccc(Nc2ncnc3ccc(NC(=O)CCl)cc23)c1` is 16.9 µM

====

- Tested on: MOLT-4 leukemia
- procedure_summary: NCI tumour cell line growth inhibition, 48 h
value_kind: TGI

Please go through the list and note TGI for each compound.
1. CC(=O)NNc1nc(C)c(C(/C=C/c2ccc(Cl)cc2)=N/NC(=O)C[N+](C)(C)C)s1
2. CS(=O)(=O)CCNCc1ccc(-c2ccc3ncnc(Nc4ccc(OCc5ccccc5)c(Cl)c4)c3c2)o1
3. COc1cc(-c2cc(=O)c3cc(C)c(C)c(C(=O)O)c3o2)cc(OC)c1OC
4. Cn1ncnc1CCc1ccccc1
5. O=C(O)CCCOc1cc(-c2ccccc2F)nc2cc3c(cc12)OCO3
6. C#CCOc1cccc(Nc2ncnc3ccc(NC(=O)CCl)cc23)c1

Reply:
1. > 100 µM
2. > 25 µM
3. > 100 µM
4. > 100 µM
5. 71.3 µM
6. > 89.5 µM

====

Please respond with reported TGI for every item in the list.
- Test system: OVCAR-4 ovarian
- procedure_summary: NCI tumour cell line growth inhibition, 48 h

Guide cases for TGI, answers given:
COc1ccc(Cc2nccc3cc(OC)c(OC)cc23)cc1OC    > 100 µM
COCCOCC(=O)N(CCn1ccc(NC(c2ccccc2)(c2ccccc2)c2ccccc2)nc1=O)CCn1cnc2nc(N)[nH]c(=O)c21    > 100 µM
C=CCNC1=C2C[C@@H](C)C[C@@H](OC)[C@H](OC(=O)CN)[C@H](C)/C=C(\C)[C@@H](OC(N)=O)[C@H](OC)/C=C\C=C(/C)C(=O)NC(=CC1=O)C2=O    29.2 µM
Cc1ccc(S(=O)(=O)Cc2nc(-c3ccc(C(=O)NCc4cccnc4)cc3)oc2C)cc1    > 100 µM
COc1cnc2c(c1)C(=O)c1c-2n(CCCN2CCCC2)c(=O)c2cc(F)ccc12    11.3 µM
OC1CN2Cc3cc4c(cc3[C@]13C=C[C@@H](O)CC23)OCO4 (stereo not given in full)    > 100 µM
COc1ccc(-c2csc(-c3cc(Cl)cc(Cl)c3Cl)n2)cc1    > 100 µM
O=C(Nc1ccccc1F)c1cc2ccc(O)cc2oc1=Nc1cccc(C(F)(F)F)c1    12.9 µM

Provide TGI values for the following items, in order.
1. CC#CCCN(CC#N)Cc1ccccc1
2. C=C(Cl)C(=C)CCC(Cl)C(C)C (stereo not given)

Reply:
1: > 100 µM; 2: > 100 µM

====

- Tested on: MOLT-4 leukemia
- procedure_summary: NCI tumour cell line growth inhibition, 48 h
value_kind: TGI (µM)
Give bare numbers, in µM.

CCc1nc(N)nc(N)c1-c1ccc(NCCc2ccccc2)c([N+](=O)[O-])c1    33.3
Cc1c(C)c(S(=O)(=O)N(CCCN)OCCCN)c(C)c2c1OC(C)(C)C2    42.7

Note: attention shifts to another entry.
response.value for `Cc1ccc2[nH]c3c(ncc4[nH]c5ccccc5c43)c2c1` (field: TGI) = 35.2

====

I'd be grateful if you could share measured TGI for these entries.
- Test system: HOP-92 NSCLC
- procedure_summary: NCI tumour cell line growth inhibition, 48 h
One number for each entry, in µM.

Examples with their reported TGI follow.
C=C1C(=O)O[C@H]2[C@H]1CC(=O)/C(C)=C/CC[C@@]1(C)O[C@@H]21    1.65
CCCCCCCC(=O)SCC/C=C/[C@@H]1CC(=O)NCc2nc(co2)C2=N[C@@](C)(CS2)C(=O)N[C@@H](C(C)C)C(=O)O1    0.111

Parameter requested: TGI. Apply to each item below.
1. CC(=O)[O-].O=C([CH-]C(=O)c1ccccc1)c1ccccc1.O=C([CH-]C(=O)c1ccccc1)c1ccccc1.[Y+3]
2. Cc1ccc(/C=C/C(=N/NC(=O)N/N=C(/C=C/c2ccc(C)cc2)C(C)(C)CN2CCCCC2)C(C)(C)CN2CCCCC2)cc1
3. COc1ccc(-c2c(-c3cc(OC)c4c(c3)OCO4)noc2N)cc1
4. COC12CC(=O)C(C(C)=O)=C(O)C1(C)c1c(OC(C)=O)c(C)c(O)c(C(C)=O)c1O2 (centres undefined)
5. CC(C)C1OC(/C=C/c2ccccc2)OCC1(C)C (centres undefined)
6. CCCCCC/C=C\CCCCCCCCCC1=CC(=O)C=C(OC)C1=O

Reply:
1: 18.9; 2: 3.44; 3: 35.8; 4: 52; 5: 52.5; 6: 8.05

====

What TGI was measured for each of the following?
- Tested on: SF-268 CNS
- procedure_summary: NCI tumour cell line growth inhibition, 48 h

Here are 5 compounds together with their reported answers.
COc1ccc2c(c1)[n+](=O)c(C(=O)/C=C/c1cc(OC)c(OC)c(OC)c1)c(C)n2[O-]    40.4 µM
O=C(O)Cn1c(=O)[nH]c(=O)c2c1ncn2Cc1ccccc1    > 100 µM
COc1ccc(C(=O)c2cc3c(N)c(C(=O)Nc4cccc(Cl)c4C)sc3nc2C)cc1    > 25 µM
Cc1c(C)c(S(=O)(=O)N(CCCN)OCCCN)c(C)c2c1OC(C)(C)C2    > 100 µM
O=C(O)CCCOc1cc(-c2ccccc2F)nc2cc3c(cc12)OCO3    > 100 µM

The following compounds each have a reported value; give each one's TGI.
1. CC(C)C1OC(/C=C/c2ccccc2)OCC1(C)C (stereo not given)
2. CCCCCCCCCCCCOC1C(CNC(=O)C2OC3OC(C)(C)OC3C2NC(=O)CN2CCCCCC2)OC2OC(C)(C)OC21 (stereo not given)
3. Nc1c(C(=O)Nc2ccccc2F)sc2nc3c(cc12)C(=O)CCC3
4. Cc1ccc(C)c(NC(=O)CCc2nc(=S)[nH][nH]2)c1
5. COc1cc(/C=C2/C(=O)N(C(=O)c3ccc(Cl)cc3)N=C2C)cc(OC)c1OC

Reply:
> 100 µM
20.8 µM
> 100 µM
> 100 µM
> 100 µM

====

Would you mind telling me the reported TGI of each entry?
- Test system: OVCAR-5 ovarian
- procedure_summary: NCI tumour cell line growth inhibition, 48 h

O=C(Nc1ccccc1F)c1cc2ccc(O)cc2oc1=Nc1cccc(C(F)(F)F)c1    > 100 µM
O=C([O-])c1ccc(C(=O)[O-])cc1.O=C([O-])c1ccc(C(=O)[O-])cc1.[Mo+2].[Mo+2]    > 100 µM
COc1ccc(-c2csc(-c3cc(Cl)cc(Cl)c3Cl)n2)cc1    > 100 µM
O=C(CC(=O)C1CCOC1=O)C(=O)Nc1ccc(Cl)cc1Cl (centres undefined)    > 100 µM
N#Cc1ccc(C(c2ccc(C#N)cc2)n2cncn2)cc1    > 5000 µM
Cc1ccsc1/C=N/Nc1nncc2ccccc12    > 100 µM

Batch lookup, TGI per entry.
1. O=C1C2c3[nH]c4ccccc4c3[C@@H]3CCCCC3C2C(=O)N1c1ccccc1 (some centres undefined)
2. CCOC(=O)c1ccc(-n2c(SCC)nc3sc(C)c(C)c3c2=O)cc1
3. O=C(NNC(=O)c1cc(/C=C/c2cccc([N+](=O)[O-])c2)[nH]c(=S)n1)Nc1ccc(Cl)cc1
4. O=C1CC(=O)N(CCc2ccccc2)S(=O)(=O)N1CCc1ccccc1
5. Cc1ccc(/C=C/C(=N/NC(=O)N/N=C(/C=C/c2ccc(C)cc2)C(C)(C)CN2CCCCC2)C(C)(C)CN2CCCCC2)cc1
6. Clc1nc2n(c1/C=C/c1cccs1)CCS2
7. Cc1ccc(/C=C/C(=O)c2cc(CN(C)C)c(O)c(CN(C)C)c2)cc1

Reply:
1: 51.8 µM; 2: > 100 µM; 3: > 100 µM; 4: 64.4 µM; 5: 4.98 µM; 6: > 100 µM; 7: > 100 µM

// each listed molecule needs a value for TGI
1. Cc1ccc(S(=O)(=O)N2CCCC2C(=O)O[C@H]2CC[C@H]3CC=C[C@H]32)cc1 (some centres undefined)
2. CC(C)NCCC(O)c1cc2ccccc2o1 (centres undefined)
3. C=C1C(=O)O[C@H]2[C@H]1CC(=O)/C(C)=C/CC[C@@]1(C)O[C@@H]21
4. O=C(O)c1oc(C(=O)O)c(C(=O)O)c1C(=O)O
5. Nc1nc(N)c2nc(CNc3ccc(C(=O)NC(CCCNC(=O)c4ccccc4C(=O)O)C(=O)O)cc3)cnc2n1 (centres undefined)
6. O=C1/C(=C/c2ccccc2)CN(C(=O)OCc2ccccc2)C/C1=C\c1ccccc1

Reply:
> 100 µM
> 100 µM
6.87 µM
> 100 µM
> 100 µM
30.8 µM

// batch mode: one TGI value per listed entry
1. COc1cc(/C=C/c2cc(/C=C/c3ccc(O)c(OC)c3)oc(=O)c2)ccc1O
2. CCCCS(=O)(=O)Nc1ccc(Nc2c3ccccc3nc3ccccc23)c(OC)c1
3. Cc1ccc(C)c(NC(=O)CCc2nc(=S)[nH][nH]2)c1
4. CCC[CH2][Sn]([CH2]CCC)([O]C(=O)C1CCC(=O)N1)[O]C(=O)C1CCC(=O)N1 (centres undefined)
5. N=C(N)SCc1cccc2c(=O)cc(-c3ccccc3)oc12
6. NC(=O)/C=C/NC(=O)/C=N\O
7. COc1ccc2c(c1)[n+](=O)c(C(=O)/C=C/c1cc(OC)c(OC)c(OC)c1)c(C)n2[O-]

Reply:
> 100 µM
26.6 µM
> 100 µM
3.48 µM
41.8 µM
> 100 µM
62.9 µM
